Reported Mean maximum fluorescence intensity (Top MFI) values are given for each entry in this list.
assay-target: T1, human Claudin 18.2 (hCLDN18.2) (human, UniProt P56856-2 1-261)
T1 construct: whole, on cells; also called CLDN18A2; claudin 18 splice variant 2
procedure-summary: FACS, HEK293-hCLDN18.2 cells
Reply numerically in MFI, unit not repeated.

[
  {
    "binder": "ch-43F5 (antibody, V domains shown, also called chimeric antibody of clone 43F5) VH: QVQLQQPGAELVKPGTSVKLSCKASGYTFTSYWTHWVKQRPGQGLEWIGMIHPNSGSSNYNEKFKSKATLTVDKSSSTAYMQLRRLTSEDSAVYYCTRIHYGNAMDYWGQGTSVTVSS VL: DIVMTQSPSSLTVTAGEKVTMTCKSSQSLLNSGNQKNYLTWYQQKPGQPPKLLIYWASTRESGVPDRFTGSGSGTDFTLTISSVQAEDLAIYYCQNDYSFPFTFGSGTKLEIK",
    "experimental-result": 5590
  },
  {
    "binder": "ch-40G7 (antibody, V domains shown, also called chimeric antibody of clone 40G7) VH: QVQLQQPGTELVKPGASVKLSCKASGYTFTNYWMHWVKQRPGHGLEWIGMIHPNSYSTNYNEKFRSKATLTVDKSSSTAYMQLSSLTSEDSAVYYCTRIYYGNAMDYWGQGTSVTVSS VL: DIVMTQSPSSLTVTAGERVTMSCKSSQSLFNSGNQKNYLTWYHQKPGQPPKLLIYWAFTRESGVPDRFTGSGSGTDFTLTIRSVQAEDLAVYYCQNDYSYPFTFGSGTKLEIK",
    "experimental-result": 7470
  }
]

Let's switch to this binder now.
Requested read-out: Mean maximum fluorescence intensity (Top MFI). Entry: ch-32G8 (antibody, V domains shown, also called chimeric antibody of clone 32G8) VH: EVHLQQSGPVLVKPGASVKMSCKASGYTFTDYHMNWVKQSHGKSLEWIGVINPYNGGIRYNQKFKGKATLTVDKSSSTAYMELNSLTSEDSAVYYCATIYYGNSFAYWGQGTLVTVSA VL: DIVMTQSPSSLTVTAGEKVTMSCKSSQSLLNSGNQKNYLTWYQQKPGQPPKLLIYWASTRESGVPDRFTGSGSGTDFTLTISSVQAEDLAVYYCQNNYIYPFTFGGGTKLEIR
8640
